# Measurement Description: in vivo
# Design: species or system Sprague Dawley rats
# Experimental Conditions: male, Sprague Dawley, rat, 4 mg/kg
Starred links: 1 amine or outer side, 2 acyl side, 3 side chain; linkers in the order of their positions; H or OH if unused. Non-standard residues stand in square brackets, D forms with d. Groups on a side chain read outwards from the residue. No end group written: not given here. *: point of attachment. C18 diacid = O=C(O)CCCCCCCCCCCCCCCCC(=O)*; αMePhe(2-F) = C[C@](N)(Cc1ccccc1F)C(=O)O; γGlu = O=C(O)[C@H](CCC(=O)[*:2])N[*:1]; αMe4Pal = C[C@](N)(Cc1ccncc1)C(=O)O; αMeY = C[C@](N)(Cc1ccc(O)cc1)C(=O)O; 4Pal = N[C@@H](Cc1ccncc1)C(=O)O; αMeL = CC(C)C[C@](C)(N)C(=O)O; αMeS = C[C@](N)(CO)C(=O)O; Orn = NCCC[C@H](N)C(=O)O; AEEA = NCCOCCOCC(=O)O; Aib = CC(C)(N)C(=O)O
Readout: half-life (h)

1) H-Y[Aib]QGT[αMePhe(2-F)]TSD[4Pal]SI[αMeL]LD[Orn]K([AEEA-γGlu-C18 diacid])AQ[αMe4Pal][Orn]FI[dE][αMeY]LIEGGPSSGEPPPEEG-NH2 [Example 475] ... 13.7
2) Y[Aib]QGT[αMePhe(2-F)]TSD[4Pal][αMeS]I[αMeL]LD[Orn]K([AEEA-γGlu-C18 diacid])AQ[Aib][Orn]FI[dE]YLIEGGPSSGEPPPSEG-NH2 [Example 463] ... 8.3
3) Y[Aib]QGT[αMePhe(2-F)]TSD[4Pal][αMeS]I[αMeL]LD[Orn]K([AEEA-γGlu-C18 diacid])AQ[Aib][Orn]FI[dE][αMeY]LIEGGPSSGAPEPSEG-NH2 [Example 429] ... 7.8

Origin of values: patent US20240270821A1
